# Lookup of reported optical density keyed by entry
tgt: T1, Goat anti-Human Kappa
T1 construct: Positive control of the ELISA; also called biotinylated goat anti-human kappa light chain
experimentalProtocol: ELISA, positive control; also: test concentration or dose not given here
# output: bare number, implied unit OD

Here are 2 binders together with their reported answers.
370_F07 (antibody, V domains shown) VH: EVQLLESGGGLVQPGGSLRLSCAASGFTFDSYSMNWVRQAPGKGLEWVSNINYNGGYKGYADSVKGRFTISRDNSKNTLYLQMNSLRAEDTAVYYCARSANWHDTALDYWGQGTLVTVSS VL: DIQMTQSPSSLSASVGDRVTITCRASQSILSYLNWYQQKPGKAPKLLIYAATSRASGVPSRFSGSGSGTDFTLTISSLQPEDFATYYCQQSYNLPLTFGGGTKVEIK
3.52
369_A02 (antibody, V domains shown) VH: EVQLLESGGGLVQPGGSLRLSCAASGFTFSSYSMNWVRQAPGKGLEWVAGINYNSGYTGYADSVKGRFTISRDNSKNTLYLQMNSLRAEDTAVYYCARSANWHDTHLDYWGQGTLVTVSS VL: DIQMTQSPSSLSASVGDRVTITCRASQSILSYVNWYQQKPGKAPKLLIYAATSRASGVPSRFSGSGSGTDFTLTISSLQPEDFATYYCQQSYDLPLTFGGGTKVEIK
3.49

Attention now turns to another entry.
Reported optical density, binder 369_D01 (antibody, V domains shown) VH: EVQLLESGGGLVQPGGSLRLSCAASGFTFSDYGMNWVRQAPGKGLEWVASINYNGGYTGYADSVKGRFTISRDNSKNTLYLQMNSLRAEDTAVYYCARSANWHDTALDYWGQGTLVTVSS VL: DIQMTQSPSSLSASVGDRVTITCRASQSILTYLNWYQQKPGKAPKLLIYAATSRASGVPSRFSGSGSGTDFTLTISSLQPEDFATYYCQQSYSNPLTFGGGTKVEIK : ____ 3.63

The measured values listed here are drawn from patent US20210380703A1.
